Values from patent US10947188B2

- System: BJeLR
- Assay name: Modulatory profiling: Alamar Blue viability, lethal compound cotreated with death modulator (EC50, AUC)
- Assay type: cell-based, human
- Assay context: BJeLR cells; lethal compound cotreated with modulator NMMA; modulatory profile value (AUC)
Listed next: entries and their corresponding AUC, modulator BJ.NMMA.
Endpoint name: AUC, modulator BJ.NMMA

| Compound | Endpoint name | Val |
| --- | --- | --- |
| COC(=O)c1ccc([C@@H]2c3[nH]c4ccccc4c3C[C@@H](C(=O)OC)N2C(=O)CCl)cc1 [RSL3, reference compound] | AUC, modulator BJ.NMMA | 0.007806 |
| COC(=O)[C@@H]1Cc2c([nH]c3ccccc23)C(C)(C)N1C(=O)CCl | AUC, modulator BJ.NMMA | −0.008594 |
| CC(C)=CCCC1=CCC(CNCCCN(C)C)C(C)C1 (stereo not shown) | AUC, modulator BJ.NMMA | 0.000264 |
| O=C(CCl)N(c1ccc(Cl)cc1)c1c[nH]c2ccccc12 | AUC, modulator BJ.NMMA | −0.01449 |
| COc1ccc(Nc2ccc3c(c2)=NC2(CCCCC2)[N+]=3[O-])cc1 | AUC, modulator BJ.NMMA | −0.01541 |
| Cc1cccc(Cn2ncc(Cl)c(Cl)c2=O)c1 | AUC, modulator BJ.NMMA | −0.03338 |
| Cc1ccc(O)c(/N=C/C=C/c2cccc(Br)c2)c1 | AUC, modulator BJ.NMMA | 0.009474 |
| CCOC(=O)[C@@H]1[C@@H](c2ccccc2)C(=O)CCN1NC(=O)c1ccccc1 | AUC, modulator BJ.NMMA | −0.02344 |
| COc1ccccc1/C=C/C1(C(=O)NC2CCCC2)CC(=O)N1c1ccc(F)cc1 (stereo not shown) | AUC, modulator BJ.NMMA | −0.02498 |
| O=C1c2ccccc2-c2onc3ccc(Oc4ccccc4)c1c23 | AUC, modulator BJ.NMMA | 0.006287 |
| O=S(=O)(c1ccc2c(c1)C(=NO)c1cc(S(=O)(=O)N3CCCCC3)ccc1-2)N1CCCCC1 | AUC, modulator BJ.NMMA | 0.0004905 |
| O=c1c(Cl)c(Cl)cnn1-c1ccc(Cl)c(C(F)(F)F)c1 | AUC, modulator BJ.NMMA | 0.01683 |
| CC[C@]1(O)C[C@@H]2CN(CCc3c([nH]c4ccccc34)[C@@](C(=O)OC)(c3cc4c(cc3OC)N(C)[C@H]3[C@@](O)(C(=O)OC)[C@H](OC(C)=O)[C@]5(CC)C=CCN6CC[C@]43[C@@H]65)C2)C1 | AUC, modulator BJ.NMMA | 0.008107 |
| CC1CC(C)(C)Nc2ccc(OC(=O)c3ccco3)cc21 (stereo not shown) | AUC, modulator BJ.NMMA | −0.01566 |
| CCc1ccc(/C=C2/SC(=O)N(CCC(C)NCCCN3CCOCC3)C2=O)cc1 (stereo not shown) | AUC, modulator BJ.NMMA | 0.03363 |
| C[C@H]1CCC[C@]2(C)C[C@H]3OC(=O)[C@H](CN4CCCC4)[C@H]3C=C12 | AUC, modulator BJ.NMMA | −3.885E−05 |
| Cc1cccnc1Nc1nc(-c2ccccn2)cs1 | AUC, modulator BJ.NMMA | −0.03177 |
| O=c1c(N2CCCC2)c(Cl)cnn1-c1ccccc1 | AUC, modulator BJ.NMMA | −0.01046 |
| CC(C)C[C@H](NC(=O)[C@H](Cc1ccccc1)NC(=O)c1cnccn1)B(O)O | AUC, modulator BJ.NMMA | −0.0002968 |

###

- Tested on: HT-1080
- Assay name: Modulatory profiling: Alamar Blue viability, lethal compound cotreated with death modulator (EC50, AUC)
- Format: cell-based
- Assay context: HT-1080, modulator Gd3+
Where a SMILES comes first, the peptide text is derived from it. The star is where a group is joined. Cbz = O=C(OCc1ccccc1)*
In plain terms, low AUC HT.Gd3+, meaning strictly below -0.01, gives Condition met, and everything else gives Condition not met.

| Compound | Category label |
| --- | --- |
| CC(C(NNC(=O)c1ccc(C(F)(F)F)cc1)c1ccc(Br)cc1)[N+](=O)[O-] (centres unmarked) [CIL87] | Condition met |
| Cc1cccnc1Nc1nc(-c2ccccn2)cs1 [CIL13] | Condition met |
| CC(C)C[C@H](NC(=O)[C@H](CC(C)C)NC(=O)[C@H](CC(C)C)NC(=O)OCc1ccccc1)B(O)O [MG262] | Condition not met |
| CC(C)C[C@@H](C=O)NC(=O)[C@H](CC(C)C)NC(=O)[C@H](CC(C)C)NC(=O)OCc1ccccc1 [MG132, reference compound] (Cbz-Leu-Leu-Leu-aldehyde) | Condition met |
| O=C1c2c(O)ccc(O)c2C(=O)c2c(NCCNCCO)ccc(NCCNCCO)c21 [Mitoxantrone] | Condition not met |
| COc1cccc(-n2nnnc2S(C)(=O)=O)c1 [CIL16] | Condition met |
| CC(C)[C@@H]1NC(=O)[C@H](C)OC(=O)[C@@H](C(C)C)NC(=O)[C@@H](C(C)C)OC(=O)[C@H](C(C)C)NC(=O)[C@H](C)OC(=O)[C@@H](C(C)C)NC(=O)[C@@H](C(C)C)OC(=O)[C@H](C(C)C)NC(=O)[C@H](C)OC(=O)[C@@H](C(C)C)NC(=O)[C@@H](C(C)C)OC1=O [Vatinomycin] | Condition not met |
| N/C(Cc1ccc(Cl)cc1)=N\OC(=O)c1cccc2ccccc12 [CIL70] | Condition met |

###

- Test system: HT-1080
- Assay name: Modulatory profiling: Alamar Blue viability, lethal compound cotreated with death modulator (EC50, AUC)
- Assay type: cell-based
- Assay context: HT-1080, modulator LNAME
Just so you know, the groups by AUC HT.LNAME go like this: category 1 = under -0.02, category 2 = from -0.02 up to 0.006, category 3 = 0.006 and over

| Compound | Category label |
| --- | --- |
| CCCCNc1c(Cl)cnn(-c2ccccc2)c1=O | category 1 |
| Cc1[nH]c2c(ccc3ccccc32)c1C1C(CCN)C1(C)C (centres unmarked) | category 3 |
| CC1CC2=C(CC1CNCCCN(C)C)C(C)(C)CCC2 (centres unmarked) | category 2 |
| [N-]=[N+]=[N-].[Na+] | category 2 |
| Cc1cccnc1Nc1nc(-c2ccccn2)cs1 | category 1 |
| COc1ccc(C(=O)C(CN2CCCC2)c2ccccc2)cc1 (centres unmarked) | category 3 |
| O=P(Oc1ccccc1)(Oc1ccccc1)O[C@@H]1C=CS(=O)(=O)C1 | category 1 |
| O=C(CCl)N(c1ccc(Cl)cc1)c1c[nH]c2ccccc12 | category 2 |
| COc1ccc(Nc2ccc3c(c2)=NC2(CCCCC2)[N+]=3[O-])cc1 | category 3 |

###

- Tested on: BJeLR
- Assay name: Modulatory profiling: Alamar Blue viability, lethal compound cotreated with death modulator (EC50, AUC)
- Assay type: cell-based, human
- Parameters: unit not given beside the values
- Assay context: BJeLR cells; lethal compound cotreated with modulator Nec-1; modulatory profile value (AUC)
Measured AUC, modulator BJ.Nec-1 of individual entries
Endpoint name: AUC, modulator BJ.Nec-1

| Compound | Val |
| --- | --- |
| C(=N\Nc1nc2ccccc2s1)/c1ccccn1 [CIL52] | 0.03888 |
| [N-]=[N+]=[N-].[Na+] [NaN3] | −0.05229 |
| CC(C)C1CC(CCNCc2ccc3c(c2)OCO3)(c2ccccc2)CCO1 (stereo not shown) [CIL51] | 0.03451 |
| CS[C@H]1SC[C@H]2C(=O)N(C)[C@@H](C(C)C)C(=O)OC[C@@H](NC(=O)c3cnc4ccccc4n3)C(=O)N[C@@H](C)C(=O)N(C)[C@@H]1C(=O)N(C)[C@@H](C(C)C)C(=O)OC[C@@H](NC(=O)c1cnc3ccccc3n1)C(=O)N[C@@H](C)C(=O)N2C [Echinomycin] | −0.01901 |

###

- Tested on: BJeLR
- Assay name: Modulatory profiling: Alamar Blue viability, lethal compound cotreated with death modulator (EC50, AUC)
- Type: cell-based, human
- Set-up: unit not given beside the values
- Assay context: BJeLR cells; lethal compound cotreated with modulator Co2+; modulatory profile value (AUC)

| Molecule smiles | AUC, modulator BJ.Co2+ |
| --- | --- |
| O=c1c(Cl)c(Cl)cnn1-c1ccc(Cl)cc1 | 0.02177 |
| CCCS(=O)(=O)c1nnnn1-c1cccc(OC)c1 | 0.0961 |
| COC(=O)[C@@H]1Cc2c([nH]c3ccccc23)C(C)(C)N1C(=O)CCl | 0.1763 |
| COc1cc2c(c(OC)c1OC)-c1ccc(OC)c(=O)cc1[C@@H](NC(C)=O)CC2 | 0.1688 |

###

- Test system: HT-1080 cells
- Assay name: Lethality of commercially available CIL41/70 structural analogs
- Type: cell-based
- Assay context: Homo sapiens, tested once in technical triplicates

| Compound | EC50 |
| --- | --- |
| N/C(COc1ccccc1)=N\OC(=O)C1CCCN1C(=O)c1ccco1 (stereo not drawn) | > 20 µg/mL |
| COc1ccccc1C/C(N)=N/OC(=O)COc1ccc(Br)c(C)c1 | > 20 µg/mL |
| Cc1ccc(OCC(=O)O/N=C(\N)Cc2ccc([N+](=O)[O-])cc2)c(C)c1 | > 20 µg/mL |
